System: BT-549 breast
Test: NCI-60 one-dose screen, 48 h (100 = growth as untreated, 0 = no growth, -100 = all killed)
Conditions: 10 µM unless noted
Method: Growth inhibition of the BT-549 human tumor cell line is measured as a screen for anti-cancer activity. Cells are grown in 96 well plates and exposed to the test compound for 48 hours. Compounds are tested at a single concentration, which is 10^-5 M for most compounds. The reported endpoint is percent growth (GI% or GIPRCNT), where numbers from 0 - 100% represent growth inhibition, and numbers from -100% - 0 represent cell death. For example, a value of 40 represents 60% growth inhibition. […]
About 83,000 compounds went through this panel and 20% of them were active in at least one assay; those are over-represented in the sample as a whole. Activity calls are given as the source filed them. How the source made its calls: active means growth percent below 10; inactive means the rest.
What growth was measured for each of the following?

For the compound CCCCN1CCN(c2ccc3nc(-c4ccc5nc(-c6ccc(OC)c(OC)c6)[nH]c5c4)[nH]c3c2)CC1 , what growth is on record?
-59% (active)

Now consider CN(C)c1ccc(N=Cc2ccc(N3CCOCC3)cc2)cc1 and answer again.
95.1% (inactive)

Input COc1cccc(-c2nn(C)c3sc(C(=O)NCCN4CCN(c5ccccc5F)CC4)cc23)c1
90.8% (inactive)

Proceed to Cc1[nH]c2ccccc2c(=O)c1CC=C(Cl)Cl
135% (inactive)

Can you check CCCCC1COc2cccc3c2N1C=C/C3=C\C(=O)N(C)c1ccccc1 (configuration not stated) next?
50.8% (inactive)

Same read-out for COc1cc(/C=C2\CCC/C(=C\c3cc(CN4CCOCC4)c(O)c(OC)c3)C2=O)cc(CN2CCOCC2)c1O ?
52.5% (inactive)

What would you report for O=C(Nc1ccccc1O)c1ccc(-c2ccc(Cl)cc2Cl)o1 ?
91.7% (inactive)

Now consider FC(F)(F)c1cccc(CNC2CCN(CCc3ccccc3)CC2)c1 and answer again.
96.4% (inactive)

Try CCCCOCc1cc(CN2CCN(C)CC2)c(O)c2ncccc12 next.
62% (inactive)

And the next one, COc1ccc(OC)c(/C=C/C(=O)c2c(C)nc3ccccc3c2/C=C/c2ccccc2)c1 ?
59% (inactive)

Queued: Clc1ncccc1Nc1ccc2nnc(-c3ccncc3)n2n1
108% (inactive)

Note, next up: COc1ccc(C2C3=C(COC3=O)N(CCO)c3cc4c(cc32)CCC4)cc1OC (configuration not stated)
29.2% (inactive)
